Assay: amyloid nucleation score (Sup35N fusion, yeast selection) (log enrichment); library NNK2; higher = more nucleation; inactive = no reads after selection;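 note: zero at mode of non-aggregating sequences after 7 days selection at 30°C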
Assign True whenever amyloid nucleation score does not fall below 3; assign False whenever it does.

Task item: Check the entry "GVVGSFPRPTSSRGRLDYCN" : does amyloid nucleation score equal or exceed 3?
Reply: False

Task item: Hi, just wondering whether "SIGPQRHLPYLLVFVYWTLS" shows amyloid nucleation score of 3 or higher.
Reply: False

Task item: Test whether the sequence "WNVWVYLAAAVSGGGPTCVS" records amyloid nucleation score of 3 or higher.
Reply: True

Task item: Say whether "RREDKLICRFIDVNLEVDW" shows amyloid nucleation score of 3 or more.
Reply: False
